assay method text: Competitive inhibition of Vibrio cholerae ASADH using aspartyl semialdehyde as substrate by Dixon plot analysis
measured property: pKi
pKi is a log-scale quantity: -log10 of the concentration expressed in molar.

Find the recorded pKi belonging to O=C(O)c1ccc([N+](=O)[O-])cn1 and report it.
2.68

Next compound up: O=C1NC(=O)c2cc([N+](=O)[O-])ccc21
2.59

Let us now turn to O=C1NC(=O)c2cc([N+](=O)[O-])c(Cl)cc21
3.74

Try this compound too: O=c1[nH]c2ccc([N+](=O)[O-])cc2[nH]1
2.96

And then CN1C(=O)c2ccc([N+](=O)[O-])cc2C1=O , what is it?
2.96

Also O=C(O)c1ccc(C(=O)O)nc1 , if possible.
2.92

Would you kindly repeat that for O=C(O)c1cc(C(=O)O)cc(C(=O)Nc2ccc([N+](=O)[O-])cc2)c1 ?
3.74
